- measurement.target: UniProt:P19112
- Sequence (P19112 2-363 limits assumed): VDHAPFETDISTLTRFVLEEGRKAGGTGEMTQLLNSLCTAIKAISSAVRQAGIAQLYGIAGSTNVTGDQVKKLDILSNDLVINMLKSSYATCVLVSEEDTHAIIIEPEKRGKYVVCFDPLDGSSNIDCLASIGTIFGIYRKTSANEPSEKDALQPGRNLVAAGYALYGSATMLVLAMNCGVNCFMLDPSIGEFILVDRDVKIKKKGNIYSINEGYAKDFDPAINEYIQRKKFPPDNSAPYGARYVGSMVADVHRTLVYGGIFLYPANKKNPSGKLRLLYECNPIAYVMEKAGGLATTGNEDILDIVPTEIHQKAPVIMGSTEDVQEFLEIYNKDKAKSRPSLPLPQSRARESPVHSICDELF
measured.quantity: IC50

Inquiry: Please look up its IC50: Nc1ncnc2c1nc(SCP(=O)(O)O)n2CCC1CCCCC1
Reply text: > 20 µM

----------
Let's look at some compounds and their measured pIC50.
- measurement.target: human liver FBPase (Homo sapiens)
- Sequence (P09467 2-338 limits assumed): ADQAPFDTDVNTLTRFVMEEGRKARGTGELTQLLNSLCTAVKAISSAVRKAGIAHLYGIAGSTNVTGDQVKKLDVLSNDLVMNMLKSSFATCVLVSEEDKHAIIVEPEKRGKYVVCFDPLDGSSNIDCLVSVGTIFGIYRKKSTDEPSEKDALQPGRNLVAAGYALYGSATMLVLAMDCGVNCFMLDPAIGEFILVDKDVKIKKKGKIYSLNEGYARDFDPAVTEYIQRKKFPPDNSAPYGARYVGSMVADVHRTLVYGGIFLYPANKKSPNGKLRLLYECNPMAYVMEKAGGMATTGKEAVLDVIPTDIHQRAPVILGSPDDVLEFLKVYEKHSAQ
pIC50 is defined as minus the log10 of a concentration measured in mol/L.

Inquiry: Request: pIC50, test system human liver FBPase (Homo sapiens), entry Nc1ncnc2c1nc(NCCP(=O)(O)O)n2[C@@H]1O[C@H](CO)[C@@H](O)[C@H]1O [Compound 4.1, 8-(2-phosphonoethylamino)-adenosine]
Reply text: 4.00

Inquiry: Request: pIC50, test system human liver FBPase (Homo sapiens), entry CC(C)(CCl)Cn1c(-c2ccc(P(=O)(O)O)o2)nc2c(N)ncnc21 [Compound 2.14]
Reply text: 6.05

Inquiry: Request: pIC50, test system human liver FBPase (Homo sapiens), entry Nc1ncnc2c1nc(SCP(=O)(O)O)n2CCC1CCCCC1 [Compound 8.1]
Reply text: 4.64

Below: the item to evaluate.
Inquiry: Request: pIC50, test system human liver FBPase (Homo sapiens), entry Nc1ncnc2c1ncn2[C@@H]1O[C@H](COP(=O)(O)O)[C@@H](O)[C@H]1O [AMP, reference compound]
Reply text: 6.00
